TEST TARGET: T1, human CD80-murine Ig fusion protein (human)
T1 construct: Bought (Ancell #510-820); also called hCD80-mIg; human CD80-murine IgG
T1 chain: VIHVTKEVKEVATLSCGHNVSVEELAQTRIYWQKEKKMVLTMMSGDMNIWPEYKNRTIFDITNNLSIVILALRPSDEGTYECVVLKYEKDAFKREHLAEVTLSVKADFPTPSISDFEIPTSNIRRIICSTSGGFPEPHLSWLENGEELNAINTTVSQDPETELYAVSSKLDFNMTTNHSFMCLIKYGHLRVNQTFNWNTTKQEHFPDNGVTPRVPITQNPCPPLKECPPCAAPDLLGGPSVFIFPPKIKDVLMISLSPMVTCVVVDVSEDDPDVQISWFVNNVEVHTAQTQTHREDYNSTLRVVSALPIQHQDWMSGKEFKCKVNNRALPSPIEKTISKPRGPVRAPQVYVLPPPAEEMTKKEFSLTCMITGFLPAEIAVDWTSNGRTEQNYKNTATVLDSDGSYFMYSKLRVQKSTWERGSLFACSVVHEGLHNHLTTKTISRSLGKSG
ASSAY TEXT: SPR Biacore, hCD80-mIg captured
VALUE KIND: Kd

{"BINDER": "D26-IgG2 (Fc fusion) MHVAQPAVVLASSRGIASFVCEYEAPHKANEVRVTVLREAGSQVTEVCAMTYMVEDELTFLDDPSCTGTFSGNQVNLTIQGLRAADTGLYICKVELMYPPPYYLGLGNGTQIYVIDPEPCPDSDERKCCVECPPCPAPPVAGPSVFLFPPKPKDTLMISRTPEVTCVVVDVSHEDPEVQFNWYVDGVEVHNAKTKPREEQFNSTFRVVSVLTVVHQDWLNGKEYKCKVSNKGLPAPIEKTISKTKGQPREPQVYTLPPSREEMTKNQVSLTCLVKGFYPSDIAVEWESNGQPENNYKTTPPMLDSDGSFFLYSKLTVDKSRWQQGNVFSCSVMHEALHNHYTQKSLSLSPG", "Kd": "0.439 to 1.75 nM"}

Could you now consider this next binder?
Tell me the measured Kd of D21-IgG2 (Fc fusion) MHVAQPAVVLASSRGIASFVCEYSAPHNADEIRVTVLRKASSQVTEVCAMTYMEEDELTFLDDPTCTGTFSGNQVNLTIQGLRAVDTGLYICKVELMYPPPYYLGFGNGTQIYVIDPEPCPDSDERKCCVECPPCPAPPVAGPSVFLFPPKPKDTLMISRTPEVTCVVVDVSHEDPEVQFNWYVDGVEVHNAKTKPREEQFNSTFRVVSVLTVVHQDWLNGKEYKCKVSNKGLPAPIEKTISKTKGQPREPQVYTLPPSREEMTKNQVSLTCLVKGFYPSDIAVEWESNGQPENNYKTTPPMLDSDGSFFLYSKLTVDKSRWQQGNVFSCSVMHEALHNHYTQKSLSLSPG , please. 0.439 to 1.75 nM
